Every entry's value here was drawn from the Deep4Chem optical property database.

Exercise: state measured fluorescence lifetime for each of the compounds provided.
experiment: solvent given as SMILES; conditions: in CCCCCCCCO
Answers are plain numbers, in ns.

>  <mol_smiles>
CN(C)c1ccc(/C=C/c2cc[n+](CCCOCC(COCCC[n+]3ccc(/C=C/c4ccc(N(C)C)cc4)cc3)(COCCC[n+]3ccc(/C=C/c4ccc(N(C)C)cc4)cc3)COCCC[n+]3ccc(/C=C/c4ccc(N(C)C)cc4)cc3)cc2)cc1

>  <fluorescence lifetime, ns>
0.48

$$$$

Please state, for each entry, its recorded fluorescence lifetime.
1. COc1cc2[nH]c3c(c2cc1OCC(=O)O)CCCC3=O
2. CCC1(CC)c2cc(-c3ccc(C(C)(C)C)cc3)ccc2-c2ccc(-c3ccc4c(c3)C(CC)(CC)c3cc(-c5ccc6c(c5)C(CC)(CC)c5cc(-c7ccc(C(C)(C)C)cc7)ccc5-6)ccc3-4)cc21
3. COc1ncccc1B(O)O
4. O=C([O-])c1ccccc1-c1c2ccc(=O)cc-2oc2cc([O-])ccc12

Result:
1. 1.15
2. 0.63
3. 0.463
4. 4.52

Please state, for each entry, its recorded fluorescence lifetime.
1. CCC1(CC)c2cc(-c3ccc4c(c3)C(CC)(CC)c3cc(C(C)(C)C)ccc3-4)ccc2-c2ccc(-c3ccc4c(c3)C(CC)(CC)c3cc(C(C)(C)C)ccc3-4)cc21
2. CCCCCCCCCCCCCCCCN(CCCCCCCCCCCCCCCC)c1ccc(/C=C/c2cc[n+](Cc3cc(C[n+]4ccc(/C=C/c5ccc(N(CCCCCCCCCCCCCCCC)CCCCCCCCCCCCCCCC)cc5)cc4)cc(C[n+]4ccc(/C=C/c5ccc(N(CCCCCCCCCCCCCCCC)CCCCCCCCCCCCCCCC)cc5)cc4)c3)cc2)cc1

Result:
[0.75, 0.8]

---

test: solvent given as SMILES; settings: in C1CCOC1
measure_name: log10 of fluorescence lifetime (log10 of the value in ns)
// stored as log10 of fluorescence lifetime expressed in ns

Here's what some known entries look like.
>  <mol_smiles>
CCC(CC)COC1=CC2=C3c4cc(OCC(CC)CC)c(-c5ccccc5)n4[B-](F)(F)[n+]4c3n(c3cc(C(C)(C)C)ccc34)[B-](F)(F)[N+]2=C1c1ccccc1

>  <log10 of fluorescence lifetime>
-0.01

$$$$
>  <mol_smiles>
CCn1c2ccccc2c2cc(-c3cc(-c4ccc5c(c4)c4ccccc4n5CC)nc(S(C)(=O)=O)n3)ccc21

>  <log10 of fluorescence lifetime>
0.36

$$$$
>  <mol_smiles>
CC1=N/C(=C\c2cccc(N(C)C)c2)C(=O)N1C

>  <log10 of fluorescence lifetime>
1.18

$$$$

Please state, for each entry, its recorded log10 of fluorescence lifetime.
1. CC(C)(C)c1ccc(C2=C(c3ccc(-n4c5ccc(C(C)(C)C)cc5c5cc(C(C)(C)C)ccc54)cc3)S(=O)(=O)c3c2sc(-c2ccc(-n4c5ccc(C(C)(C)C)cc5c5cc(C(C)(C)C)ccc54)cc2)c3-c2ccc(C(C)(C)C)cc2)cc1
2. CN(C)c1ccc(C#Cc2ccccc2)cc1

Result:
[0.04, -0.23]

---

assay: solvent given as SMILES; settings: in ClCCl
measure_name: log10 fluorescence lifetime (log10 of the value in ns)
// stored as log10 of fluorescence lifetime expressed in ns

>  <mol_smiles>
Cc1ccc(C2=Nc3cccc4[n+]3[B-](c3ccccc3)(N2)NC(c2ccc(C)cc2)=N4)cc1

>  <log10 fluorescence lifetime>
0.41

$$$$

Please state, for each entry, its recorded log10 fluorescence lifetime.
1. CC(C)(C)c1ccc(-c2nc3c4ccc(-c5ccccc5)cc4c4cc(-c5ccccc5)ccc4c3n2-c2ccc(C(C)(C)C)cc2)cc1
2. CCCCCCCCCCCCCCCCOc1cc(C#Cc2ccc3ccccc3c2)c(OCCCCCCCCCCCCCCCC)cc1C#Cc1ccc(C=C(C#N)C#N)cc1

Result:
[1.00, -0.20]

---

test: solvent given as SMILES; conditions: in CC(C)=O
Exercise: state measured log10(fluorescence lifetime) for each of the molecules provided.
// stored as log10 of fluorescence lifetime expressed in ns

Here's what some known entries look like.
>  <molecule>
CN(C)c1ccc(/C=C/C=C2\CC/C(=C\c3ccc(N(C)C)cc3)C2=O)cc1

>  <log10(fluorescence lifetime)>
0.06

$$$$
>  <molecule>
COc1ccc(-c2cc(-c3ccc(OC)cc3)c3c(N)nc(N4CCCC4)c(C#N)c3n2)cc1

>  <log10(fluorescence lifetime)>
1.00

$$$$
>  <molecule>
Cc1nc2c(c[n+]1C)CN1C(=O)N([C@H]3O[C@@H](CO)[C@H](O)[C@@H]3O)C=CC1=N2

>  <log10(fluorescence lifetime)>
0.49

$$$$
>  <molecule>
CCN(CC)c1ccc2cc(/C=C/C(=C(C#N)C#N)c3ccc(N(c4ccccc4)c4ccccc4)cc3)c(=O)oc2c1

>  <log10(fluorescence lifetime)>
-0.23

$$$$
>  <molecule>
O=S(=O)(c1ccc(N2c3ccccc3Oc3ccccc32)cc1)c1ccc(N2c3ccccc3Oc3ccccc32)cc1

>  <log10(fluorescence lifetime)>
0.63

$$$$
>  <molecule>
CCCN1C(=O)C(=CC=CC=C2Oc3ccccc3N2CCCS(=O)(=O)[O-])C(=O)N(CCC)C1=S

>  <log10(fluorescence lifetime)>
-0.07

$$$$
>  <molecule>
O=C1c2ccccc2-c2ccc(Nc3nc(Cl)nc(Cl)n3)c3cccc1c23

>  <log10(fluorescence lifetime)>
0.65

$$$$
>  <molecule>
COc1cc(N(c2ccccc2)c2ccccc2)ccc1C=C(C#N)C#N

>  <log10(fluorescence lifetime)>
-1.30

$$$$

Please state, for each entry, its recorded log10(fluorescence lifetime).
1. COc1ccc(-c2cc(-c3ccc(C)cc3)nc3c(C#N)c(N4CCCC4)nc(N)c23)cc1
2. Cc1ccc(-c2cc(-c3ccc(N(C)C)cc3)c3c(N)nc(N4CCCC4)c(C#N)c3n2)cc1
3. CN(C)c1ccc2nc(/C=C/c3ccccc3)c(=O)oc2c1
4. CNC1=C2C=CC=[N+]2[B-](F)(F)n2cccc21

Result:
1: 1.05; 2: 1.01; 3: 0.58; 4: -0.14

---

assay: solvent given as SMILES; details: in C1CCCCC1
measure_name: fluorescence lifetime (ns)
Give bare numbers, in ns.

Here's what some known entries look like.
>  <mol_smiles>
CN(C)c1ccc(C#Cc2ccccc2)cc1

>  <fluorescence lifetime / ns>
0.38

$$$$
>  <mol_smiles>
Nc1ccccn1

>  <fluorescence lifetime / ns>
24.2

$$$$

Please state, for each entry, its recorded fluorescence lifetime.
1. C#CCNC1=C2C(C)=CC(C)=[N+]2[B-](F)(F)n2c(C)cc(C)c21
2. CN1CCCc2cc3c(C(F)(F)F)cc(=O)oc3cc21
3. CC(C)(C)[Si](C)(C)c1ccc([Si](C)(C)C(C)(C)C)c2ccccc12

Result:
[1.78, 4.2, 12]

---

test: solvent given as SMILES; settings: in CCO
Exercise: state measured fluorescence lifetime for each of the molecules provided.
One number for each entry, in ns.

Here's what some known entries look like.
>  <molecule>
CCCN1C(=O)C(=CC=CC=C2Oc3ccccc3N2CCCS(=O)(=O)[O-])C(=O)N(CCC)C1=S

>  <fluorescence lifetime [ns]>
0.465

$$$$
>  <molecule>
CCC1(CC)c2cc(-c3ccc4c(c3)C(CC)(CC)c3cc(C(C)(C)C)ccc3-4)ccc2-c2ccc(-c3ccc4c(c3)C(CC)(CC)c3cc(C(C)(C)C)ccc3-4)cc21

>  <fluorescence lifetime [ns]>
0.8

$$$$
>  <molecule>
CSc1sc(C(C)=O)c2nn[nH]c(=O)c12

>  <fluorescence lifetime [ns]>
0.41

$$$$
>  <molecule>
CCC1=C(C)C2=C(C)c3c(C)c(CC)c(C)n3[B-](F)(F)[N+]2=C1C

>  <fluorescence lifetime [ns]>
6.09

$$$$
>  <molecule>
CCN1\C(=C/C=C/C=C/C2=[N+](CC)c3ccc4cc(Br)ccc4c3C2(C)C)C(C)(C)c2c1ccc1cc(Br)ccc21

>  <fluorescence lifetime [ns]>
1.03

$$$$
>  <molecule>
CN(C)c1ccc(/C=C/c2cc[n+](CCCOCC(COCCC[n+]3ccc(/C=C/c4ccc(N(C)C)cc4)cc3)(COCCC[n+]3ccc(/C=C/c4ccc(N(C)C)cc4)cc3)COCCC[n+]3ccc(/C=C/c4ccc(N(C)C)cc4)cc3)cc2)cc1

>  <fluorescence lifetime [ns]>
0.11

$$$$
>  <molecule>
CCN(CC)c1ccc2cc(C#N)/c(=N\C(C)=O)oc2c1

>  <fluorescence lifetime [ns]>
1.8

$$$$
>  <molecule>
CC(=O)c1nc(-c2ccc(N(C)C)cc2)oc1C

>  <fluorescence lifetime [ns]>
1.66

$$$$

Please state, for each entry, its recorded fluorescence lifetime.
1. Nc1ccccn1
2. NNC(=O)NNN1C(=O)c2cc(S(=O)(=O)[O-])cc3c(N)c(S(=O)(=O)[O-])cc(c23)C1=O
3. CCCCCC(=O)c1c2c(c(C(=O)CCCCC)c3c1OC1(CCCC1)O3)OC1(CCCC1)O2
4. CCOC(=O)c1ccccc1-c1c2ccc(=[N+](CC)CC)cc-2oc2c1c(=O)oc1c3c4c(cc12)CCCN4CCC3
5. Cc1ccc(-c2cc(-c3ccccc3)c(C#N)c(=S)[nH]2)cc1

Result:
5.1
9.2
11.6
0.43
4.79
